Sourced from patent US7981883B2

Examples of compounds with documented VR1 (rat) (% inhibition compared to 10 μM CP) follow.
measured target: VR1 (rat) (Rattus norvegicus, UniProt O35433)
Construct: from tissue; host or cells: primary cells dissociated from rat dorsal root ganglia
Sequence (O35433 whole entry): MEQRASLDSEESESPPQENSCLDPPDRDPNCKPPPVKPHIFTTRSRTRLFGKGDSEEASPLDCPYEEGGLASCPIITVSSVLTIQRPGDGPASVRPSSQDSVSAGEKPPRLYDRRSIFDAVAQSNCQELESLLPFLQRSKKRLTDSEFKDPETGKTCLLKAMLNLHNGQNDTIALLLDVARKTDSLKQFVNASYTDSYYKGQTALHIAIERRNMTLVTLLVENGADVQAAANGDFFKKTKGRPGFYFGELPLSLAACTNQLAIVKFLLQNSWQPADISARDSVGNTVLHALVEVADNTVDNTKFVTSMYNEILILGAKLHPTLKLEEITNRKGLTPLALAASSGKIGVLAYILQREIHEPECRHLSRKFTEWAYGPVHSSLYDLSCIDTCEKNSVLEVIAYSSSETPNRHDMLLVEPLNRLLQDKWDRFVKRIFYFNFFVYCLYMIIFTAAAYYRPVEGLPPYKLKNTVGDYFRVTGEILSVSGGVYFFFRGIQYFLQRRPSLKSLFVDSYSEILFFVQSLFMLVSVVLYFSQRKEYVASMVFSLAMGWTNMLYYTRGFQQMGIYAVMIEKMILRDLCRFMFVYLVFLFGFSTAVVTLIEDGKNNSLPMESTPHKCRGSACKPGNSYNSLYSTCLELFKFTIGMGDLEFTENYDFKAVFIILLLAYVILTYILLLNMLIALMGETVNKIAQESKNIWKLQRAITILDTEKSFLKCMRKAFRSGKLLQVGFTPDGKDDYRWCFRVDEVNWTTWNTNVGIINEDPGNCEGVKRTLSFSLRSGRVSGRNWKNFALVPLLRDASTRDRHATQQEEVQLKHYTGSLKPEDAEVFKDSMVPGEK
run description: Functional FLIPR Ca2+ inflow assay on rat-species vanilloid receptor 1 in rat dorsal root ganglia cells
Type: cell-based
condition details: test compound 10 μM, then 100 nM capsaicin after 5 min; relative to maximum inhibition with 10 μM capsaicin
Description: I. Functional Testing Carried Out on the Vanilloid Receptor 1 (VR1/TRPV1 Receptor) The agonistic or antagonistic effect of the substances to be tested can be determined on the rat-species vanilloid receptor 1 (VR1/TRPV1) using the following assay. […]
readout kind: VR1 (rat) (% inhibition compared to 10 μM CP) (%)

# compound, measured target, result number
rows = [
    ("CC(C)(C)[C@H]1CC[C@@]2(CC1)CC(C(=O)N1CCN(c3ncccc3C(F)(F)F)CC1)=NO2", "VR1 (rat) (Rattus norvegicus, UniProt O35433)", 91.46),
    ("CC(C)(C)C1CCC2(CC1)CC(C(=O)NCc1ccncc1)=NO2 (stereo not shown)", "VR1 (rat) (Rattus norvegicus, UniProt O35433)", 69.46),
    ("CC(C)(C)[C@H]1CC[C@]2(CC1)CC(C(=O)N1CCN(c3ncccc3C(F)(F)F)CC1)=NO2", "VR1 (rat) (Rattus norvegicus, UniProt O35433)", 97.15),
    ("CC(C)(C)c1ccc(NC(=O)[C@H]2CC[C@@]3(CC2)CC(c2ccccc2)=NO3)cc1", "VR1 (rat) (Rattus norvegicus, UniProt O35433)", 91),
]

* * *

measured target: VR1 (rat) (Rattus norvegicus)
Construct: from tissue; host or cells: primary cells dissociated from rat dorsal root ganglia
run description: Functional FLIPR Ca2+ inflow assay on rat-species vanilloid receptor 1 in rat dorsal root ganglia cells
Format: cell-based
condition details: test compound 10 μM; Ca2+ signal relative to 10 μM capsaicin (CP); read-out: VR1 (rat) (% stimulation compared to 10 μM CP)
From the text: I. Functional Testing Carried Out on the Vanilloid Receptor 1 (VR1/TRPV1 Receptor) The agonistic or antagonistic effect of the substances to be tested can be determined on the rat-species vanilloid receptor 1 (VR1/TRPV1) using the following assay. […]
readout kind: activation at 10 µM (%)

# molecule, readout kind, result number
rows = [
    ("CC(C)(C)C1CCC2(CC1)CC(C(=O)Nc1cccc3cnccc13)=NO2 (stereo not shown) [Example 4]", "activation at 10 µM", -0.54),
    ("CC(C)(C)C1CCC2(CC1)CC(C(=O)Nc1ccc(NS(C)(=O)=O)c(F)c1)=NO2 (stereo not shown) [Example 90]", "activation at 10 µM", 43),
    ("CCC(C)(C)C1CCC2(CC1)CC(C(=O)NCc1ccc(NS(C)(=O)=O)c(F)c1)=NO2 (stereo not shown) [Example 80]", "activation at 10 µM", 48),
    ("CC(C)(C)C1CCC2(CC1)CC(C(=O)NCc1ccc(N)cc1)=NO2 (stereo not shown) [Example 1]", "activation at 10 µM", 44.7),
]
